# systemTested: CYP2C19 (Homo sapiens)
# Sequence (P33261 whole entry): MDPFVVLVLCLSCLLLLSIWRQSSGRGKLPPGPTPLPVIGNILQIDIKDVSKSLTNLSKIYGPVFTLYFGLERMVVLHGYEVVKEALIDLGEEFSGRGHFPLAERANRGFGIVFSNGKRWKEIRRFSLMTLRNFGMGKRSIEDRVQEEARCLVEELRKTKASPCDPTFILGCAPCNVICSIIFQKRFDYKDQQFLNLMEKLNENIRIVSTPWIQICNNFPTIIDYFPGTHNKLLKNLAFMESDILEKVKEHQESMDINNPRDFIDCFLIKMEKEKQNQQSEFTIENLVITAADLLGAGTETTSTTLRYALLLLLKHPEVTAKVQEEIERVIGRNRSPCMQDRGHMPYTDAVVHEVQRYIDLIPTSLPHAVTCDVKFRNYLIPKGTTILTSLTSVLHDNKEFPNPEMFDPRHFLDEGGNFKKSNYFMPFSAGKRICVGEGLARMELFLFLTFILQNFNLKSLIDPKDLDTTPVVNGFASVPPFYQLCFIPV
# testProtocol: Phase 1 drug-drug interaction study: PK of omeprazole and 5-hydroxyomeprazole with placebo or GLPG1205
# conditionSummary: male, human, plasma, oral, 20 mg, AUC0‐t, Placebo + omeprazole, arithmetic mean (CV%)
endpointName: AUC (µg·h/mL)
Numbers only, in µg·h/mL.

Exam item: // AUC lookup, key: COc1ccc2[nH]c([S+]([O-])Cc3ncc(C)c(OC)c3C)nc2c1 (stereo not shown) [Omeprazole, omeprazole, reference compound]
Marked response: 0.486

---

# systemTested: CYP2C19 (Homo sapiens)
# testProtocol: CYP2C19 inhibition, S-mephenytoin 4'-hydroxylase assay in human liver microsomes
# Type: in vitro ADME
# Set-up: from tissue; host or cells: in vivo, 14 healthy male subjects
# conditionSummary: estimated, human liver microsomes; read-out: IC50 for inhibition of CYP2C19
# Source text: Inhibition of the biotransformation of CYP‐specific substrates by GLPG1205 was studied using human liver microsomes. […] Further details of the assays used for each CYP substrate are reported in the Supplemental Methods. Metabolites of the CYP‐specific substrates (acetaminophen for CYP1A2, hydroxytolbutamide for CYP2C9, hydroxymephenytoin for CYP2C19) were quantified using LC‐MS/MS. […]
pIC50: −log10 of the molar value.
endpointName: pIC50

Exam item: // pIC50 lookup, key: `O=c1nc(OC[C@@H]2COCCO2)cc2n1CCc1cc(C#CC3CC3)ccc1-2`
Marked response: ≤ 4.30

---

# Tested on: CYP1A2
# testProtocol: in vitro
# conditionSummary: human, CYP1A2 mRNA, fold induction, mean (SD)
endpointName: fold induction at 24 h, 1 µM

Exam item: Request body: readout fold induction at 24 h, 1 µM, system CYP1A2, query `O=c1nc(OC[C@@H]2COCCO2)cc2n1CCc1cc(C#CC3CC3)ccc1-2` . Return the value.
Marked response: 6.12

---

# systemTested: CYP1A2 (Homo sapiens, UniProt P05177)
# Sequence (P05177 1-516): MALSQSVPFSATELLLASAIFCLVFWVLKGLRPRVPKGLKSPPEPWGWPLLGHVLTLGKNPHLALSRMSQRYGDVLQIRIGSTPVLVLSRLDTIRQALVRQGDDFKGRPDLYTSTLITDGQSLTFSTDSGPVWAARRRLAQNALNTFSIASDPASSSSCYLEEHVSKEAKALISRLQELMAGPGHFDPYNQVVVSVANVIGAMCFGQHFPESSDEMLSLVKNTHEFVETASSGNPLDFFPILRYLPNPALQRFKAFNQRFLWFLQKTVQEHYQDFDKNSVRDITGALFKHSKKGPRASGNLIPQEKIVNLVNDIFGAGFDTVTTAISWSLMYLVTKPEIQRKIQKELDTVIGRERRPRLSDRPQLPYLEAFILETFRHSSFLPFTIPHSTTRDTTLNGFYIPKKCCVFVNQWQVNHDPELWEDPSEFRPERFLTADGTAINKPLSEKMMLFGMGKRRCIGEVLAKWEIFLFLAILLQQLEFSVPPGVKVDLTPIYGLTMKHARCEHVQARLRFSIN
# testProtocol: clinical
# conditionSummary: male, plasma, oral, AUC0‐inf, GLPG1205 100 mg once a day + caffeine, arithmetic mean (CV%)
endpointName: AUC
Kindly write the number and append the unit.

Exam item: // AUC lookup, key: `Cn1c(=O)c2c(ncn2C)n(C)c1=O`
Marked response: 17400 ng·h/mL
